Data origin: the nanobody polyreactivity screen of Harvey et al. (2022)

- ASSAY_PROCEDURE: yeast display, Sf9 membrane polyspecificity reagent, FACS + sequencing; frameworks hold sequencing errors

SEQ | polyreactivity (PSR sort gate)
QVQLVESGGGLVQAGGSLRLSCAASGSISDVYTMGWYRQAPGKERELVAANSFSGDSTYYADSVKGRFTISRDNAKNTVYLQMNSLKPEDTAVYYCATDVGYVYGYYYWGQGTQVTVSS | low polyreactivity
QVQLVESGGGLVQAGASLRLSCAASGITFWGYAMGWYRQAPGKEREFVARINWSGGRTYYAESVKGRFTISRDNAKNTVYLEMNSLKPEDTAVYDCAATSLIYGYRTYDYWGQGTQVTVSS | high polyreactivity
QFQLVESGGGLVQAGGSLRLSCAASGINFSSYVMGWYRQAPGKERELVAAISKSGARTSYADSVKGRFSISRDNAKNTVYLQMNSLKPEDTAVYYCNAYTESWYPIYFFGWSYTAVDYWGQGTQVTVSS | low polyreactivity
QVQLQESGGCLVQAGGSQRLSCAASGYIFYFQYMGWYRQAQGKEREFVAAISDGANTNYADSVKGRFTISRDNAKNTEYLKMNSLKPEDTAVYYCAVYADENYYYIYWGQGTQVTVSS | low polyreactivity
QVQLVESGGGLVQAGGSLRLSCAASGYTFLGNAMGWYRQAPGKERELVAAISSGGTTYYADSVKGRFTISRDNAKNTVYLQMNSMKPEDTSVYYCADDRVGLSSGYDFWGQGTQVTVSS | low polyreactivity
QVQLVESGGGLVQAGGSLRLSCAASGSTFDSYAMGWYRQAPGKERELVAAISRSGGRTYYADSVKGRFTISRDNAKNTVYLQMNSLKPEDTAVYYCAAPVKVGHSLSGGDYWGQGTQVTVSS | high polyreactivity
QGQLVESGGGLVQAGGSLRLSSAASGRTFPSYAMGWYRQAPGKERELVAAITVSGGNTYYADSVKGRFTISRDNAKNTVYLQMNSLKAEDTAVYYCNTASYVSWYVHYYYWGLGTQVTVSS | low polyreactivity
QVQLVESGGGLVQAGGSLRLSCAASGSTFGWYTMAWYRQAPGKERELVAAITSRGTRTSYADSVKGRFTISRDNAKNTVYLQMNSLKPEETAVYYCAARVFRGLGEYYWGQGTQVTVSS | high polyreactivity
QVQLVESGGGLVQAGGSLRLSCAASGGTFHYYAMGWYRQAPGKERELVAAISWSGGSTYYADSVKGRFTISRDNAKNTVYLQMNSLKPEDTAVYYCAAETYPYLFHTYDYWGQGTQVTVSS | low polyreactivity
QVQLVESGGGLVQAGGRLRLTCAPSGTIIYQYAMGFDRHAPGKERELVAASSTTGGPTYYADSVKGRFTISRDNAKKTVYLQMNSLKPEDTAVYYCAAEKYYGYDYWGQGTQVTVSS | high polyreactivity
QVQLEESGGGLVQAGGSLRLSCAASGFTFRKNAMGWYRQAPGKERELVAAISSGGGRTYYADSVKGRFTISRDNANNTVYLQMNSLKPEDTAVYYCAVSIGRYPYRYGYWGQGTQVTVSS | high polyreactivity

====

- ASSAY_PROCEDURE: yeast display, Sf9 membrane polyspecificity reagent, FACS + sequencing; frameworks hold sequencing errors

SEQ | polyreactivity (PSR sort gate)
QVQLQESGGGLVQAGGSLRLSCAASGNIFLGDTMGWYRQAPGKEREFVAGIARGGNPYYADSVKGRFTISRNNANNTVYLQKNSLKPEDTAVHYCAVQRSHASDYNYWGQGTQVTVSS | low polyreactivity
QVQLVESGGGLVQAGGSLRLSCAASGSIFRLNALGWYRQAPGKERELVAAITWSDSSTYYADSVKGRFTISRDNAKNTVYLQMNSLKQEDTAVYYCAADPQSYKYDYWGQGTQVTVSS | low polyreactivity
QVQLVESGGGLVQAGGSLRLTCAASGRTFKYYAMGWYRQAPGKERELVAAITRSGGNTYYADSVKGRFTISRDNAKNTVYLQMNSLKPEDTAVYYCAKRLGYRYPTYDYWGQGTQVSVSS | high polyreactivity
QVQLVESGGGLVQAGGSLRLSCAASGGIFGYYAMGWYRQAPGKERELVAAINYSGGSTYYADSVKGRFTISRDNAKNTVYLQMNSLKPEDTAVYYCNAVVRDYTFRYYYWGQGTQVTVSS | low polyreactivity
HVQLVESGGGLVQAGGSLRLSCAASGRTFGIYAMGWYRKAPGKERELVAAITGRGGSTHYADSVKGRFTISRDNAKNTVYLQMNSLKPEDTAVYYCAADYRYNRGITSNKDYDYWGQGTQVTVSS | low polyreactivity
QVQLVESAGRLVQAGGSLRLSCAASGFTFRKNAMGWYRQAPGKERELVAAITFSGGSTYYADSVKGRFTISRDNAKNTVYLQMNSLKPEDTAVYFCGTRYYYHYPRKHIYNYWGQGTQVTVSS | high polyreactivity
QVQLVESGRGLVQAGGSLRLSCAASGRIFPFYAMGWYRQAPGKERELVAAISSSGGSTYYADSVKGRFTISRDNAKNTVYLQMNSLKPEDTAVYYCAATRNSDGMGYWGQGTLVTVSS | low polyreactivity
QVQLVESGGGLVQAGGSHRLSCAASGRTFRQYAMGWYRQAPGKERELVATISSGGSTYYADSVKGRFTISRDNAKNTVYLQMNSLKPEDTAVYYCAAPYWARKYWRKFGPFDYWGQGTQVTVSS | low polyreactivity
QVQLVESGGGLVQAGGSLRLSCAASGRTFYYNTMGRNIPAPGKERELVATISRIGGSTYYADSVKGRFTISRDNAKNTVYLQMNSLKPEDTAVYYCAKGRSLNGRPPVVYWQLFYYWGQGTEVTVSS | high polyreactivity
QVQLVESGGGLLQAGGSLPLSCAASGRIFHQYAMGWYRQAPGKERELVAAISKTGTRTYYADSVKGRFTISRDNAKNTVYFQINSLKPDDTAVYYCNALYWTVYSREYDYWGQATQVTVSS | high polyreactivity
QVQLVESGGGLVQAGGSLRLSCAASGRIFHANAMGWYRQAPGKERELVAGISRNGGRTYYADSVKGRFTISRDNAKNTVYLQMNSLKPEDSAVYYCNALHWHSNELDYYWGQGTQVTVSS | high polyreactivity
